- experiment_notes: Acute toxicity
- Assay type: in vivo
- condition_summary: in vivo; acute administration; read-out: Median lethal dose (LD50)

- smiles_text: "Cc1cc([N+](=O)[O-])c(NS(=O)(=O)c2cccc(C(=O)O)c2)cc1-c1cccnc1"
  LD50 at 14 days: "> 2000 mg/kg"
